- STUDY SYSTEM: T1, human CCR8 (human, UniProt P51685 1-355)
- T1 construct: Native CCR8 on human PBMC (CCR8+ CD3+ or CCR8+ CD4+ lymphocytes); also called chemokine (C-C motif) receptor 8
- T1 sequence (P51685 whole entry): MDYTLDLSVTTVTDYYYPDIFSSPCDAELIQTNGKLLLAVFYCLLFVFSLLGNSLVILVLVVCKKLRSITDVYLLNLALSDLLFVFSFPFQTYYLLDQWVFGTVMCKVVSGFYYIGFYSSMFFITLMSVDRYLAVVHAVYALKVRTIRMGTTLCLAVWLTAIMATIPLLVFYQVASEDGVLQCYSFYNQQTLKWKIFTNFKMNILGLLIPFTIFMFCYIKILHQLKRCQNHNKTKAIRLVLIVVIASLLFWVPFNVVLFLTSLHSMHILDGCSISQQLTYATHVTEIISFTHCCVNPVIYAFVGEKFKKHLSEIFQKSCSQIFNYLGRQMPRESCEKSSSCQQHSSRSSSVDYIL
- ASSAY EXPLANATION: flow blocking, PBMC CCR8+CD3+; competitor PE-AB10
- Procedure: For blocking studies, 100 μL of the cell suspension were incubated with 10 μg purified isotype control, AB1, AB2, AB3, AB4, AB5, AB8, AB9, AB10, AB11, AB12, AB13, AB14, AB15, and Commercial ABI antibodies, or isotype control, as blocking agents. […]

BINDER	MFI
AB5 (antibody, V domains shown, Hybridoma monoclonal; Same VH/VL entries as AB6; also called antibody 5; clone 5) VH: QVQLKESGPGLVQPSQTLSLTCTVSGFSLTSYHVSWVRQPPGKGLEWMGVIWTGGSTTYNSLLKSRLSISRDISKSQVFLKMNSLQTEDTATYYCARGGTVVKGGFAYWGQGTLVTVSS VL: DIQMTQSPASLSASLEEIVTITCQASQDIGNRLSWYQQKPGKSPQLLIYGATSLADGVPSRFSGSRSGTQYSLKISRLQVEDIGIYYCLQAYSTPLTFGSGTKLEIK	962
